method: Bidirectional transcellular transport of [14C]uric acid in Caco-2 cells
Assay type: in vitro ADME, human
measurementContext: human; Control (no inhibitor), Caco-2 monolayer, 37°C, pH 7.4; read-out: Permeability BL to AP
measuredMetric: Papp B→A at 120 min (×10⁻⁶ cm/s)
Numbers only, in ×10⁻⁶ cm/s.

Q: Given the molecule O=c1[nH]c(=O)c2[nH]c(=O)[nH]c2[nH]1 , what is its reported Papp B→A at 120 min?
Ans: 1.73
